Data origin: patent US20260201064A1

Target: T1, recombinant human ASM protein (human, UniProt P17405 47-630)
T1 construct: Recombinant human ASM in solution; also called acid sphingomyelinase (ASM) protein
T1 sequence: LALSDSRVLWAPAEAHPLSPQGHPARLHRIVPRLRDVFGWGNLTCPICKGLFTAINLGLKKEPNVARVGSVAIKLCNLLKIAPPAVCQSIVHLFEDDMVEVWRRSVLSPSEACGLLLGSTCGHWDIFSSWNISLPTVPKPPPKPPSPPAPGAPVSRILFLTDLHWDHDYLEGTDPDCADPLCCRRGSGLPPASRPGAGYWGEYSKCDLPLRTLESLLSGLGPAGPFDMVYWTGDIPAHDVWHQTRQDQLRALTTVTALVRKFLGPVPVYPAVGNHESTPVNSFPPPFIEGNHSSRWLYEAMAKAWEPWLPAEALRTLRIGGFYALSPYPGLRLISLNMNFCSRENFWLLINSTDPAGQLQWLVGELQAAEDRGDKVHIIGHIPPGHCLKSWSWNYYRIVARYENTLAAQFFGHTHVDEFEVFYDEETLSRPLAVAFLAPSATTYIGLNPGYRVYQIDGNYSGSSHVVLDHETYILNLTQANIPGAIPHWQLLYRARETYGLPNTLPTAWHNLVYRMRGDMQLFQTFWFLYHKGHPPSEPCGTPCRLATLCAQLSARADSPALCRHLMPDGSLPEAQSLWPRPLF
Experiment: BLI (Octet), antibody on AHC sensor
Items are presented alongside their recorded pKd.
pKd (log units): -log10 of the concentration in mol/L.

Consider the binder #9104v-L38 (antibody, human IgG4 S228P, lambda, V domains shown, Full-length IgG, lambda) VH: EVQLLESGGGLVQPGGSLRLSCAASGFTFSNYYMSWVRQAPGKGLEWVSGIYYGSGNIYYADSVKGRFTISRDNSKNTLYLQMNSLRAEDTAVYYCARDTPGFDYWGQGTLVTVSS VL: QSVLTQPPSASGTPGQRVTISCTGSSSNIGNNAVNWYQQLPGTAPKLLIYYDSYRPFGVPDRFSGSKSGTSASLAISGLRSEDEADYYCGAWDYSLSAYVFGGGTKLTVLG and give its measured pKd.
8.74

---
Consider the binder #9104v-L21 (antibody, human IgG4 S228P, lambda, V domains shown, Full-length IgG, lambda) VH: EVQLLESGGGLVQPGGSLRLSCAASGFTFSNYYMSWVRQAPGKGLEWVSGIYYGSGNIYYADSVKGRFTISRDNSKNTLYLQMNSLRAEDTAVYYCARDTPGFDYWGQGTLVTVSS VL: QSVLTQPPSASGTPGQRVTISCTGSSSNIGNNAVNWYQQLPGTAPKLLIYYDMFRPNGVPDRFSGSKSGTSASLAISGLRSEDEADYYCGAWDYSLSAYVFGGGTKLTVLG and give its measured pKd.
9.25
